# system: CYP2D6 (Homo sapiens)
# Sequence (P10635 whole entry): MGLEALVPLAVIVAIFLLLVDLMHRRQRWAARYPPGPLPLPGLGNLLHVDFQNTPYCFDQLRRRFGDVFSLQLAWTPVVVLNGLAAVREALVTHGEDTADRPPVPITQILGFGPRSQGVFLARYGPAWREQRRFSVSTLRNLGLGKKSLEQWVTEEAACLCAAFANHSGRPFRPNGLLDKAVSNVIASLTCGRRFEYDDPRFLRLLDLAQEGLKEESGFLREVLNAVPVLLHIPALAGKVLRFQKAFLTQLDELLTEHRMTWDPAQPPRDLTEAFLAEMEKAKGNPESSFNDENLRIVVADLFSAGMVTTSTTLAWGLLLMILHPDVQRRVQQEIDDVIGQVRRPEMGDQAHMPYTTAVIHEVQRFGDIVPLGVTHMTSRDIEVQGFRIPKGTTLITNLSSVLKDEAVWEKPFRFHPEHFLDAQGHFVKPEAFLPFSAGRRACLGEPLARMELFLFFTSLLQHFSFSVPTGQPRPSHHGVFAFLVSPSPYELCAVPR
# test_name: Inhibition of CYP2D6 (unknown origin) assessed as remaining activity at 10 uM relative to control
# Type: ADME
# assay_context: read-out: Activity
measured_property: activity at 10 µM (%)
State just the number; it will be interpreted in %.

INPUT: Bench note: what activity at 10 µM did CN1Cc2c(ncnc2N2CCC(C)(CNS(N)(=O)=O)CC2)NC1=O show?
OUTPUT: 90.9

###

# system: Ectonucleotide pyrophosphatase/phosphodiesterase family member 1 (Homo sapiens, UniProt P22413)
# Sequence (P22413 whole entry): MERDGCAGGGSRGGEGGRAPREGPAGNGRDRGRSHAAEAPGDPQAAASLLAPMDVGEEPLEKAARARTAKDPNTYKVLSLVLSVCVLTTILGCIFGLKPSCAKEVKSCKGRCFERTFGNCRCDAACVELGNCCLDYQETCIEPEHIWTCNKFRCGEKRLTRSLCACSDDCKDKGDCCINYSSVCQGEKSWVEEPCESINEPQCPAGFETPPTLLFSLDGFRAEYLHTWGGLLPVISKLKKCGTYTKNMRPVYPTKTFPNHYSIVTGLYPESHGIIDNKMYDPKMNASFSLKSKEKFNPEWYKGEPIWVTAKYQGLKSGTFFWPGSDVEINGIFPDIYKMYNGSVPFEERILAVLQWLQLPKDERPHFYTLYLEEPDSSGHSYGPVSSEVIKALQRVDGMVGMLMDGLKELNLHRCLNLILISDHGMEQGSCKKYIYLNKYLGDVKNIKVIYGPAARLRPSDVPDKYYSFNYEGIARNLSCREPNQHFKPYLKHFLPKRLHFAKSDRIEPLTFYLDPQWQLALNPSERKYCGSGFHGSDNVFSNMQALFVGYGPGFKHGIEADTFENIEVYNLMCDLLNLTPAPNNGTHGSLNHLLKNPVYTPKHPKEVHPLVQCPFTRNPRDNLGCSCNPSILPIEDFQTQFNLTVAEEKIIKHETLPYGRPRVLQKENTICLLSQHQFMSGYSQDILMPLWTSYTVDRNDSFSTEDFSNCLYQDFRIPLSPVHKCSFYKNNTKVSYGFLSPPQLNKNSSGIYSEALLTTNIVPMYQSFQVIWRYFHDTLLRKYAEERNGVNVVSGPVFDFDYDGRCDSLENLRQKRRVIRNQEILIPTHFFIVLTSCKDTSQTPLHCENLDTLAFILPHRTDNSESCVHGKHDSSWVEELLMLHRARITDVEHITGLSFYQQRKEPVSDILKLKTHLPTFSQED
measured_property: IC50 (nM)

Worked set:
chemical_string | value_unit | test_result
CN1Cc2c(-c3ccc(CNS(N)(=O)=O)cc3)ccnc2NC1=O | nM | 389
CN1Cc2c(ncnc2-c2ccc(CNS(N)(=O)=O)c(F)c2)NC1=O | nM | 916

A = CN1Cc2c(ncnc2N2CCC(NS(N)(=O)=O)CC2)NC1=O
B = CN1Cc2c(-c3ccc(CNS(N)(=O)=O)c(F)c3)ccnc2NC1=O
C = CN1Cc2c(-c3ccc(CN(C)S(N)(=O)=O)cc3)ccnc2NC1=O
INPUT: Number of compounds to sort: 3. Sort criterion: IC50, ascending. Dear reader, please state the labels in the requested order.
OUTPUT: B, A, C

###

# system: Ectonucleotide pyrophosphatase/phosphodiesterase family member 1 (Homo sapiens)
# test_name: Inhibition of ENPP1 (unknown origin) at 10 uM relative to control
measured_property: inhibition (%)

Please review the following examples before continuing.
chemical_string | system | value_unit | inhibition
CN1Cc2c(-c3cccc(CNS(C)(=O)=O)c3)ccnc2NC1=O | Ectonucleotide pyrophosphatase/phosphodiesterase family member 1 (Homo sapiens) | % | 15
CN1Cc2c(-c3ccc(CNS(N)(=O)=O)cc3)ccnc2NC1=O | Ectonucleotide pyrophosphatase/phosphodiesterase family member 1 (Homo sapiens) | % | 100
CN1Cc2c(N3CCC(CCNS(N)(=O)=O)CC3)ncnc2N(C)C1=O | Ectonucleotide pyrophosphatase/phosphodiesterase family member 1 (Homo sapiens) | % | 62
NS(=O)(=O)Nc1cccc(-c2ccnc3c2CN(C2CC2)C(=O)N3)c1 | Ectonucleotide pyrophosphatase/phosphodiesterase family member 1 (Homo sapiens) | % | 62
CN1Cc2c(ncnc2N2CCC(C)(CCNS(N)(=O)=O)CC2)NC1=O | Ectonucleotide pyrophosphatase/phosphodiesterase family member 1 (Homo sapiens) | % | 93
CN1Cc2c(-c3ccc(CNS(N)(=O)=O)cc3)ccnc2N(Cc2ccccc2)C1=O | Ectonucleotide pyrophosphatase/phosphodiesterase family member 1 (Homo sapiens) | % | 0
CN1Cc2c(ncnc2Nc2ccc(NS(N)(=O)=O)cc2)NC1=O | Ectonucleotide pyrophosphatase/phosphodiesterase family member 1 (Homo sapiens) | % | 67
CN1Cc2c(-c3ccc(CN(C)S(N)(=O)=O)cc3)ccnc2NC1=O | Ectonucleotide pyrophosphatase/phosphodiesterase family member 1 (Homo sapiens) | % | 80

P = CN1Cc2c(NCc3ccc(NS(N)(=O)=O)cc3)ncnc2NC1=O
Q = NS(=O)(=O)NCc1cccc(-c2ccnc3c2CNC(=O)N3)c1
INPUT: Please choose the item with the lower inhibition value from this pair: P and Q Lab note: record the label of whichever item you select.
OUTPUT: Q

I = CN1Cc2c(-c3cccc(CNS(N)(=O)=O)c3)ccnc2NC1=O
II = Cc1ccc(S(=O)(=O)NCc2cccc(-c3ccnc4c3CN(C)C(=O)N4)c2)cc1
INPUT: When their inhibition values are compared, which is larger, I or II ? # answer = label of selected item
OUTPUT: I
(I: 96%, II: 4%)
